Entry source: patent US8299048B2

# Study Target: human GR (Homo sapiens, UniProt P04150)
# Sequence (P04150 1-777): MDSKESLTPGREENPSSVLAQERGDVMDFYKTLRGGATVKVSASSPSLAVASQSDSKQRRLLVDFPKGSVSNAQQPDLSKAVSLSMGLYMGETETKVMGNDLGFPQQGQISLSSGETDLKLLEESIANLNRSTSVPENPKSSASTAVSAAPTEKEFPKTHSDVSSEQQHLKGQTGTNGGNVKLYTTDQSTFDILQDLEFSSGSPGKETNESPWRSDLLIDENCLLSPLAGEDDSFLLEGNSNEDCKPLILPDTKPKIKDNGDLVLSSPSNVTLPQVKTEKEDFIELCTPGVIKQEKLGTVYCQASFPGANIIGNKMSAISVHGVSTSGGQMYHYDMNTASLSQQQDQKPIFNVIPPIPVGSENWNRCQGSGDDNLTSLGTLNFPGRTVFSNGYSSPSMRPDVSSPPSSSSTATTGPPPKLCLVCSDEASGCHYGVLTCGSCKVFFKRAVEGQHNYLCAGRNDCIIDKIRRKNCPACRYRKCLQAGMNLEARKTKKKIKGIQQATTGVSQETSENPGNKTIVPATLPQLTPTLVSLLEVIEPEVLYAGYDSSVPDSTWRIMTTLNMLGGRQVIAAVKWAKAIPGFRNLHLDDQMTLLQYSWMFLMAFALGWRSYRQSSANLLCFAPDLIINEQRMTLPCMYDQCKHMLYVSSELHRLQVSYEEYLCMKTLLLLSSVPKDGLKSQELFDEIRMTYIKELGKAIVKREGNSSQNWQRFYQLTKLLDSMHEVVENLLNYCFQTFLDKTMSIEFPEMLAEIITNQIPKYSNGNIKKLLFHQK
# Experimental Details: Transrepression Assay (GITAR), TNFα-β-lactamase reporter in U937 cells
# Assay type: cell-based
# Parameters: U937 cells contain an endogenous glucocorticoid receptor (GR); endogenous in cells; host or cells: U937 cells stably transfected with the TNF-alpha promoter/beta-lactamase reporter
# Assay Setup: U937 cells; inflection point; read-out: Transrepression U937 Cells GITAR IP
# Excerpt: This assay assesses the ability of test compounds to control transcription from the TNFα-β-lactamase reporter gene in U937 cells, a human myelomonocytic leukemia cell line that naturally expresses the human GR. The assay measures compound dependent-repression of the TNFa promoter linked to a reporter gene. The human U937 cells that had been stablely transfected with the TNF-α promoter driving β-lactamase are used for this assay. U937 cells contain an endogenous glucocorticoid receptor (GR). […]
List of log10 EC50 values.
Record value = log10 of EC50 given in nM.

// query Query: log10 EC50; subject: C[C@]12Cc3cnn(-c4ccc(F)cc4)c3C=C1CC[C@@H]2CN(CCO)S(=O)(=O)c1ccccc1Cl [Example 81]
// result 2.98

// query Query: log10 EC50; subject: C[C@]12Cc3cnn(-c4ccc(F)cc4)c3C=C1CC[C@@H]2CN(CC1(OS(=O)(=O)CC(F)(F)F)CC1)S(=O)(=O)CC(F)(F)F [Example 136]
// result 2.64

###

# Study Target: UniProt P04150
# Sequence (P04150 1-777): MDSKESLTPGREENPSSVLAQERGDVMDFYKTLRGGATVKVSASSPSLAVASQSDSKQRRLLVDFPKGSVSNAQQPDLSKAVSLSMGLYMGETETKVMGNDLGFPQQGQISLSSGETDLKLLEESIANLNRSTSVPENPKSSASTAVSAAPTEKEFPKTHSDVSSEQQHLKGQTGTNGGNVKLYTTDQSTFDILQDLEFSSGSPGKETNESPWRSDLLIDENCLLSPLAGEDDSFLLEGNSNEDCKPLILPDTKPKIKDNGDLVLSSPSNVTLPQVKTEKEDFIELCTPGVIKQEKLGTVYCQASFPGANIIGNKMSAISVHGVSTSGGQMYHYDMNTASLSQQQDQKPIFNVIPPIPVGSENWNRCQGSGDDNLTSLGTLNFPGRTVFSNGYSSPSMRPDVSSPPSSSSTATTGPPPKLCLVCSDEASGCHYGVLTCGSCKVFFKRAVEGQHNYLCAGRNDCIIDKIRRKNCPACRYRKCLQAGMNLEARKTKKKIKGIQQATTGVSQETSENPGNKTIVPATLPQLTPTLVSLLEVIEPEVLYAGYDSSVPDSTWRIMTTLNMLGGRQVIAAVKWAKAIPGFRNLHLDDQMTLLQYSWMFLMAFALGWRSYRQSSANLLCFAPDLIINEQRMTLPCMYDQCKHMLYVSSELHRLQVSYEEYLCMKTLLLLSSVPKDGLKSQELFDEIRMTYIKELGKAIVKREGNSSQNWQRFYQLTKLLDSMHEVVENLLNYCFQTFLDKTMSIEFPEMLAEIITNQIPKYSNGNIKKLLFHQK
# Experimental Details: Trans-Activation Modulation of Glucocorticoid Receptor (GRAMMER), MMTV-LUC reporter, agonist mode
# Assay type: cell-based
# Design: endogenous in cells
# Assay Setup: A549, A549 cells; maximum activity; read-out: Transactivation A549 Cells GRAMMER Emax
List of Emax values.
Enter your answer as a number in %; do not include the unit.

Study these solved cases before continuing.
// query Form field - read-out: Emax; system: UniProt P04150; submitted item: CCS(=O)(=O)N(CCOC)C[C@H]1CCC2=Cc3c(cnn3-c3ccc(F)cc3)C[C@@]21C
// result 71.3

// query Form field - read-out: Emax; system: UniProt P04150; submitted item: Cc1nn(C)c(Cl)c1S(=O)(=O)N(CCO)C[C@H]1CCC2=Cc3c(cnn3-c3ccc(F)cc3)C[C@@]21C
// result 6.9

// query Form field - read-out: Emax; system: UniProt P04150; submitted item: C[C@]12Cc3cnn(-c4ccc(F)cc4)c3C=C1CC[C@@H]2CN(CCO)S(=O)(=O)Cc1cccc(C(F)(F)F)c1
// result 2.1

Continuing:
// query Form field - read-out: Emax; system: UniProt P04150; submitted item: Cc1noc(C)c1S(=O)(=O)N(CCCc1ccccc1)C[C@H]1CCC2=Cc3c(cnn3-c3ccc(F)cc3)C[C@@]21C
// result 41.9

// query Form field - read-out: Emax; system: UniProt P04150; submitted item: Cc1noc(C)c1S(=O)(=O)N(CCO)C[C@H]1CCC2=Cc3c(cnn3-c3ccc(F)cc3)C[C@@]21C
// result 63.1

// query Form field - read-out: Emax; system: UniProt P04150; submitted item: COCCN(C[C@H]1CCC2=Cc3c(cnn3-c3ccc(F)cc3)C[C@@]21C)S(=O)(=O)c1cn(C)nc1C(F)(F)F
// result 10.7

// query Form field - read-out: Emax; system: UniProt P04150; submitted item: CCCCCc1ccc(S(=O)(=O)N(CC2CC2)C[C@H]2CCC3=Cc4c(cnn4-c4ccc(F)cc4)C[C@@]32C)cc1
// result 12.7

// query Form field - read-out: Emax; system: UniProt P04150; submitted item: C[C@]12Cc3cnn(-c4ccc(F)cc4)c3C=C1CC[C@@H]2CN(CCc1ccccn1)S(=O)(=O)Cc1ccccn1
// result 37.8

// query Form field - read-out: Emax; system: UniProt P04150; submitted item: Cn1cc(S(=O)(=O)N(CC(O)c2ccccn2)C[C@H]2CCC3=Cc4c(cnn4-c4ccc(F)cc4)C[C@@]32C)c(C(F)(F)F)n1 (stereo partly drawn)
// result 63.6

// query Form field - read-out: Emax; system: UniProt P04150; submitted item: C[C@]12Cc3cnn(-c4ccc(F)cc4)c3C=C1CC[C@@H]2CN(CCO)S(=O)(=O)c1ccc(F)c(Cl)c1
// result 20.6

// query Form field - read-out: Emax; system: UniProt P04150; submitted item: Cc1noc(C)c1S(=O)(=O)N(C[C@H]1CCC2=Cc3c(cnn3-c3ccc(F)cc3)C[C@@]21C)C[C@@H](C)O
// result 48.1

// query Form field - read-out: Emax; system: UniProt P04150; submitted item: C[C@]12Cc3cnn(-c4ccc(F)cc4)c3C=C1CC[C@@H]2CN(CCO)S(=O)(=O)c1ccc(Oc2ccccn2)cc1
// result 34.1

// query Form field - read-out: Emax; system: UniProt P04150; submitted item: Cc1nn(C)c(Cl)c1S(=O)(=O)N(CC#N)C[C@H]1CCC2=Cc3c(cnn3-c3ccc(F)cc3)C[C@@]21C
// result 31.9

// query Form field - read-out: Emax; system: UniProt P04150; submitted item: C[C@]12Cc3cnn(-c4ccc(F)cc4)c3C=C1CC[C@@H]2CN(CC1CC1)S(=O)(=O)c1ccccc1Cl
// result 34.4

// query Form field - read-out: Emax; system: UniProt P04150; submitted item: Cn1cc(S(=O)(=O)N(CC(O)C(F)F)C[C@H]2CCC3=Cc4c(cnn4-c4ccc(F)cc4)C[C@@]32C)c(C(F)(F)F)n1 (stereo partly drawn)
// result 4.5

// query Form field - read-out: Emax; system: UniProt P04150; submitted item: C[C@]12Cc3cnn(-c4ccc(F)cc4)c3C=C1CC[C@@H]2CN(CC#N)S(=O)(=O)c1ccc(F)cc1
// result 83.3
